- System: rats with cerebral ischemic reperfusion injury
- Type: in vivo, SD rats
- measurementContext: ischemic reperfusion MCAO rats; 40 mg/kg intravenously 30 min before and 12 h after reperfusion; scored 24 h after reperfusion; Longa grade 0-4
# key: entry, value: Average score of neurological impairment

Exercise: Which measured Average score of neurological impairment value corresponds to CC(C)c1cc(-c2cc(C(C)C)c(OC(=O)CCC(=O)O)c(C(C)C)c2)cc(C(C)C)c1O [Example 5 group] ?
Solution: 2.2

Exercise: Which measured Average score of neurological impairment value corresponds to CC(=O)OC(C)Oc1c(C(C)C)cc(-c2cc(C(C)C)c(O)c(C(C)C)c2)cc1C(C)C (stereo not drawn) [Example 12 group] ?
Solution: 2.4

Exercise: Which measured Average score of neurological impairment value corresponds to CC(=O)Oc1c(C(C)C)cc(-c2cc(C(C)C)c(OC(C)=O)c(C(C)C)c2)cc1C(C)C [Example 2 group] ?
Solution: 2.1

Exercise: Which measured Average score of neurological impairment value corresponds to CC(C)c1cc(-c2cc(C(C)C)c(C(=O)O)c(C(C)C)c2)cc(C(C)C)c1O [Example 8 group] ?
Solution: 2.3

Exercise: Which measured Average score of neurological impairment value corresponds to CC(=O)Oc1c(C(C)C)cc(-c2cc(C(C)C)c(O)c(C(C)C)c2)cc1C(C)C [Example 1 group] ?
Solution: 2.0

Exercise: Which measured Average score of neurological impairment value corresponds to CC(C)c1cc(-c2cc(C(C)C)c(OC=O)c(C(C)C)c2)cc(C(C)C)c1O [Example 10 group] ?
Solution: 2.2

Exercise: Which measured Average score of neurological impairment value corresponds to CCCc1cc(-c2cc(CCC)c(O)c(CCC)c2)cc(CCC)c1O [Example 7 group] ?
Solution: 2.1

Exercise: Which measured Average score of neurological impairment value corresponds to CCCc1cc(-c2cc(CCC)c(O)c(C(C)C)c2)cc(C(C)C)c1O [Example 6 group] ?
Solution: 2.0

Exercise: Which measured Average score of neurological impairment value corresponds to CC(C)c1cc(-c2cc(C(C)C)c(OC(=O)C(N)C(C)C)c(C(C)C)c2)cc(C(C)C)c1O (stereo not drawn) [Example 11 group] ?
Solution: 2.2

* * *

- System: IL-1β
- assayName: Determination of IL-1β in brain tissue homogenate, cerebral ischemic reperfusion MCAO model
- Assay type: in vivo, SD rats
- measurementContext: ischemic reperfusion MCAO rats; 40 mg/kg intravenously; 10% brain tissue homogenate, 24 h after reperfusion
IL-1β content of 0.7 ng/mL or higher: YES. Under 0.7 ng/mL: NO.

# example entries with known answers
>  <molecule>
CCCc1cc(-c2cc(CCC)c(O)c(CCC)c2)cc(CCC)c1O [Example 7 group]

>  <labelValue>
NO

$$$$
>  <molecule>
CC(C)c1cc(-c2cc(C(C)C)c(OC(=O)CCC(=O)O)c(C(C)C)c2)cc(C(C)C)c1O [Example 5 group]

>  <labelValue>
YES

$$$$
>  <molecule>
CC(C)c1cc(-c2cc(C(C)C)c(C(=O)O)c(C(C)C)c2)cc(C(C)C)c1O [Example 8 group]

>  <labelValue>
NO

$$$$
>  <molecule>
CCCc1cc(-c2cc(CCC)c(O)c(C(C)C)c2)cc(C(C)C)c1O [Example 6 group]

>  <labelValue>
NO

$$$$
>  <molecule>
CC(=O)Oc1c(C(C)C)cc(-c2cc(C(C)C)c(OC(C)=O)c(C(C)C)c2)cc1C(C)C [Example 2 group]

>  <labelValue>
YES

$$$$
>  <molecule>
CC(C)c1cc(-c2cc(C(C)C)c(OC=O)c(C(C)C)c2)cc(C(C)C)c1O [Example 10 group]

>  <labelValue>
NO

$$$$

Now examine the next entry.
Exercise: Could you verify whether the entry CC(=O)OC(C)Oc1c(C(C)C)cc(-c2cc(C(C)C)c(O)c(C(C)C)c2)cc1C(C)C (centres unmarked) [Example 12 group] shows IL-1β content of no less than 0.7 ng/mL?
Solution: YES
